# TEST DETAILS: Mouse brain penetration pharmacokinetics study (plasma and brain)
# Assay type: in vivo, ICR male mice
# RECORDED CONDITIONS: male, ICR, mouse, brain and plasma, po, 100 mg/kg, ICR male mice, PO(100mg/kg), sampling time 24 h, individual animals; read-out: B/P ratio

STRUCTURE SMILES | Kp at 24 h
CN(C(=O)c1ccc2nc(N)c3cncn3c2c1)[C@@H]1COc2cc(C(F)(F)F)ccc21 | 0.321

====

# TEST DETAILS: Mouse brain penetration pharmacokinetics study (plasma and brain)
# Type: in vivo, ICR male mice
# RECORDED CONDITIONS: male, ICR, mouse, plasma, po, 30 mg/kg, ICR male mice, PO(30mg/kg), sampling time 4 h, individual animals; read-out: Plasma concentration

STRUCTURE SMILES | concentration at 4 h / ng/mL
CN(C(=O)c1ccc2nc(N)c3cncn3c2c1)[C@@H]1COc2cc(C(F)(F)F)ccc21 | 7520

====

# System: U87MG MTAP(-/-) cells
# TEST DETAILS: Inhibition of proliferation of U87MG MTAP(-/-) cells (CellTiter-Glo)
# Assay type: cell-based
# RECORDED CONDITIONS: Homo sapiens, U-87 MG, 144 h, cell proliferation, 6 days
Collected log10 of IC50 values appear next to each entry.
MEASURED PROPERTY: log10 of IC50 (log10 of the value in nM)

COMPOUND | TESTED TARGET | MEASURED PROPERTY | VALUE OBSERVED
CN(C(=O)c1cc2c(cc1F)nc(N)c1cncn12)[C@@H]1COc2cc(S(C)(=O)=O)ccc21 | U87MG MTAP(-/-) cells | log10 of IC50 | 2.65
C[C@H]1OC[C@@H](N(C)C(=O)c2cc3c(cn2)nc(N)c2cncn23)c2ccc(C(F)(F)F)cc21 (single isomer, unassigned) | U87MG MTAP(-/-) cells | log10 of IC50 | 1.15
Cc1cc2nc(N)c3cncn3c2cc1C(=O)N(C)[C@@H]1COc2cc(C(F)(F)F)ccc21 | U87MG MTAP(-/-) cells | log10 of IC50 | 1.30
C[C@H]1OC[C@@H](N(C)C(=O)c2ccc3nc(N)c4cncn4c3c2)c2ccc(C(F)(F)F)cc21 (single isomer, unassigned) | U87MG MTAP(-/-) cells | log10 of IC50 | 1.00
CCN(C(=O)c1ccc2nc(N)c3cncn3c2c1)[C@@H]1COc2cc(C(F)(F)F)ccc21 | U87MG MTAP(-/-) cells | log10 of IC50 | 1.87
C[C@H]1OC[C@@H](N(C)C(=O)c2ccc3nc(N)c4cncn4c3c2)c2ccc(F)cc21 (single isomer, unassigned) | U87MG MTAP(-/-) cells | log10 of IC50 | 1.96
CN(C(=O)c1cc2c(cc1F)nc(N)c1cncn12)[C@@H]1COc2cc(-c3ccnn3C)ccc21 | U87MG MTAP(-/-) cells | log10 of IC50 | 1.79

====

# Test system: LN-18
# TEST DETAILS: Mini cell panel: inhibition of proliferation of LN-18 cells
# Format: cell-based
# RECORDED CONDITIONS: Homo sapiens, LN-18, MTAP (-/-)
pIC50: −log10 of the molar value.

COMPOUND | TESTED TARGET | pIC50
CN(C(=O)c1ccc2nc(N)c3cncn3c2c1)[C@@H]1COc2cc(C(F)(F)F)ccc21 [Example 107] | LN-18 | 8.03
CC(=O)O[C@H]1C(=O)[C@@]2(C)[C@H]([C@H](OC(=O)c3ccccc3)[C@]3(O)C[C@H](OC(=O)[C@H](O)[C@@H](NC(=O)c4ccccc4)c4ccccc4)C(C)=C1C3(C)C)[C@]1(OC(C)=O)CO[C@@H]1C[C@@H]2O [Paclitaxel, reference compound] | LN-18 | 7.69
CN(C(=O)c1cc2c(cn1)nc(N)c1cncn12)[C@@H]1COc2cc(C(F)(F)F)ccc21 [Example 4] | LN-18 | 8.11

====

# Test system: HCT-116 MTAP wild-type cells
# TEST DETAILS: Inhibition of proliferation of HCT-116 MTAP wild-type cells (Cell-Titer Glo)
# Type: cell-based
# RECORDED CONDITIONS: Homo sapiens, HCT-116, 192 h, 8 days
# Experimental: Test 2: Compound's inhibitory activity on proliferation of HCT-116 MTAP wild-type cells. […] Cell Proliferation Inhibition Assay: The compound's inhibitory activity on HCT-116 MTAP wild-type cells was assessed using the Cell-Titer Glo assay kit. […]

MOLECULE | IC50
[2H]C([2H])([2H])N(C(=O)c1cc2c(cc1F)nc(N)c1cncn12)[C@@H]1COc2cc(C(F)(F)F)ccc21 [Example 41] | 1140 nM
CN(C(=O)c1ccc2nc(N)c3nnnn3c2c1)[C@@H]1COc2cc(C(F)(F)F)ccc21 [Example 58] | > 10000 nM
CN(C(=O)c1cc2c(cc1F)nc(N)c1cncn12)C1CCOc2cc(C(F)(F)F)cnc21 (stereo not drawn) [Example 110] | > 10000 nM
CN(C(=O)c1cc2c(cn1)nc(N)c1cncn12)[C@@H]1COc2cc(C(F)(F)F)ccc21 [Example 4] | 1710 nM
Cc1ncc(-c2ccc3c(c2)OC[C@H]3N(C)C(=O)c2cc3c(cc2F)nc(N)c2cncn23)cn1 [Example 40] | 9200 nM
CN(C(=O)c1cc2c(cc1F)nc(N)c1cncn12)[C@@H]1CCOc2cc(C(F)(F)F)ccc21 [Example 60] | 7070 nM
CN(C(=O)c1ccc2nc(N)c3cncn3c2c1)C1COc2cc(S(F)(F)(F)(F)F)ccc21 (stereo not drawn) [Example 45] | 947 nM
CN(C(=O)c1ccc2nc(N)c3cncn3c2c1)[C@@H]1COc2cc(C(F)(F)C(F)(F)F)ccc21 [Example 130] | 1290 nM
CN(C(=O)c1cc2c(cc1Cl)nc(N)c1cncn12)[C@@H]1COc2cc(Br)ccc21 [Example 12] | 1110 nM
Nc1nc2ccc(C(=O)N(C3CC3)C3COc4cc(C(F)(F)F)ccc43)cc2n2cncc12 (stereo not drawn) [Example 73] | 4620 nM
CCN(C(=O)c1ccc2nc(N)c3cncn3c2c1)[C@@H]1COc2cc(C(F)(F)F)ccc21 [Example 55] | 1220 nM
CN(C(=O)c1cc2c(cc1F)nc(N)c1cncn12)[C@@H]1COc2cc(-c3cscn3)ccc21 [Example 46] | > 10000 nM
CN(C(=O)c1ccc2nc(N)c3cncn3c2c1)[C@@H]1COc2cc(C(N)=O)ccc21 [Example 53] | > 10000 nM
Cc1cc(-c2ccc3c(c2)OCC[C@H]3N(C)C(=O)c2cc3c(cc2F)nc(N)c2cncn23)on1 [Example 116] | > 10000 nM
Nc1nc2cc(F)c(C(=O)N(C3CC3)C3CCOc4cc(-c5cncc(C(F)(F)F)c5)cnc43)cc2n2cncc12 (stereo not drawn) [Example 59] | > 10000 nM

====

# TEST DETAILS: Mouse brain penetration pharmacokinetics study (plasma and brain)
# Assay type: in vivo, ICR male mice
# RECORDED CONDITIONS: male, ICR, mouse, brain, po, 30 mg/kg, ICR male mice, PO(30mg/kg), sampling time 8 h, individual animals; read-out: Brain concentration
# Excerpt: IV. Mouse Brain Penetration Pharmacokinetics Study The test compounds used in this study were the compounds described in the specific examples of the present disclosure. ICR male mice, N=3/group; sourced from Zhejiang Vital River Laboratory Animal Technology Co., Ltd. 3. Drug Preparation and Administration […]
MEASURED PROPERTY: concentration at 8 h (ng/g)

STRUCTURE SMILES | UNIT OF MEASURE | VALUE OBSERVED
CN(C(=O)c1ccc2nc(N)c3cncn3c2c1)[C@@H]1COc2cc(C(F)(F)F)ccc21 | ng/g | 1820

====

# TEST DETAILS: Mouse brain penetration pharmacokinetics study (plasma and brain)
# Type: in vivo, ICR male mice
# RECORDED CONDITIONS: male, ICR, mouse, brain and plasma, po, 30 mg/kg, ICR male mice, PO(30mg/kg), sampling time 12 h, individual animals; read-out: B/P ratio

STRUCTURE SMILES | Kp at 12 h
CN(C(=O)c1ccc2nc(N)c3cncn3c2c1)[C@@H]1COc2cc(C(F)(F)F)ccc21 | 0.365

====

# TEST DETAILS: Mouse brain penetration pharmacokinetics study (plasma and brain)
# Type: in vivo, ICR male mice
# RECORDED CONDITIONS: male, ICR, mouse, brain and plasma, po, 30 mg/kg, ICR male mice, PO(30mg/kg), sampling time 8 h, individual animals; read-out: B/P ratio

MOLECULE | Kp at 8 h
CN(C(=O)c1ccc2nc(N)c3cncn3c2c1)[C@@H]1COc2cc(C(F)(F)F)ccc21 [Example 107] | 0.286
